Measured values drawn from PubChem BioAssay (EPA / NIEHS) for this set.

- Experiment notes: ACEA_AR_agonist_AUC_viability: ACEA Biosciences xCELLigence Real-Time Cell Analysis on Androgen Receptor Agonism for Viability (AID 2283775);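 on AC50: viability read 80 hours after compound addition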
Inconclusive results are not listed. Activity calls are given as the source filed them. How the source made its calls: active means hit-call score of the fitted dose curve at least 0.9, where 1 is the maximum; inconclusive means response in the unintended direction; inactive means score below 0.9.
Measured property: AC50

Solved cases (7 shown):
# Compound, AC50
data = [
    ("C=C[Si](C)(C)O[Si](C)(C)C=C", "inactive"),
    ("O=C(O)CCCC[C@@H]1SC[C@@H]2NC(=O)N[C@@H]21", "inactive"),
    ("O=C(C(Cl)Cl)N1CCOC12CCCCC2", "9.81 µM (active)"),
    ("NC(=O)N=NC(N)=O", "inactive"),
    ("CC1=NN(c2cc(S(=O)(=O)O)ccc2Cl)C(=O)C1N=Nc1ccccc1 (stereo not drawn)", "inactive"),
    ("CN(C)c1ccc(N=Nc2ccccc2C(=O)O)cc1", "6.64 µM (active)"),
    ("CC1=CC[C@H]2C[C@@H]1C2(C)C", "inactive"),
]

-- ask Entry CC(C)c1ccc2c(C(C)C)cc(C(C)C)c(S(=O)(=O)O)c2c1 : reported AC50 = ?
-- reply inactive

* * *

- Read-out: Urokinase-type plasminogen activator receptor (uPAR), PLAUR (gene 5329)
- Experiment notes: BSK_BE3C_uPAR: BioMAP Diversity Plus: BE3C Assay for Urokinase-type plasminogen activator receptor (uPAR) Biomarker Activity (AID 2283039)
- Stated conditions: primary human bronchial epithelial cells; actives raise or lower the signal
Calls of active or inactive are those of the source. Rule for the calls: active = hit-call score of the fitted dose curve at least 0.9, where 1 is the maximum; inactive = score below 0.9.
A correct response names exactly one class from T = active, F = inactive

Reference set, count: 3
# Compound, Class name
records = [
    ("CN1C(=O)N(C)C(O)C1O (stereo not drawn)", "F"),
    ("c1ccc2c(c1)ccc1ncccc12", "F"),
    ("c1ccc2c(c1)ccc1cc3c(ccc4ccccc43)cc12", "F"),
]

-- ask How did this test come out for S=C(NC1CCCCC1)NC1CCCCC1 ?
-- reply F

-- ask Per the records of this test, what outcome belongs to N#[N+]c1ccc2c(S(=O)(=O)[O-])cccc2c1O ?
-- reply F

-- ask # lookup: test call for CO[Si](OC)(OC)c1ccccc1
-- reply F

-- ask Test call, this compound: CCCCCCCCc1ccc(Nc2ccc(CCCCCCCC)cc2)cc1
-- reply F

-- ask Just curious, what result did C=CC(=O)OCC(Br)CBr (stereo not drawn) get here?
-- reply F

-- ask Test call for this compound, please: CCO[Si](C)(OCC)OCC
-- reply F

-- ask Recorded call for C/C=C\C/C=C/CCCCCCCCOC(C)=O ?
-- reply F

-- ask Assay outcome for CCCCCCCCCCCCCCCC[N+](C)(C)CC : what was it?
-- reply T

-- ask What was the test verdict on CCOc1nc(F)cc2nc(S(=O)(=O)Nc3c(Cl)cccc3C(=O)OC)nn12 ?
-- reply F

-- ask Could you check what this test reported for O=C(Nc1ccccc1SSc1ccccc1NC(=O)c1ccccc1)c1ccccc1 ?
-- reply F

-- ask Given CC(C)C(=O)C(C)C , state the outcome it received in this test.
-- reply F

-- ask What did this assay record as the result for CCCCC/C=C\C/C=C\CCCCCCCC(=O)OC ?
-- reply F

-- ask Could you kindly confirm the outcome this assay logged for CC(C)(c1cc(Br)c(OCCO)c(Br)c1)c1cc(Br)c(OCCO)c(Br)c1 ?
-- reply F

-- ask So what was the verdict on CCCCC(CC)COC(=O)c1ccccc1O (stereo not drawn) in this test?
-- reply F
